Reference source: patent US20250066503A1

target: T1, soluble human CD3 epsilon chain (human, UniProt P07766 23-126); assay: SPR
T1 construct: also called CD3ε
T1 sequence (P07766 23-126 limits assumed): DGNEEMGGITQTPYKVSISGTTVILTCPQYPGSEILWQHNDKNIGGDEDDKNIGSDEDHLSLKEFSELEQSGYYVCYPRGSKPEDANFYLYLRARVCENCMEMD
RECORDED_ENDPOINT: pKd
To interpret pKd, take it as minus log10 of a concentration measured in moles per litre.

>>> experimental_value("TR01H050-E22Hh/none-Hi-Kn010G3/L0000-k0 (antibody, V domains shown, one-arm) VH: QVQLVESGGGLVQPGRSLRLSCAASGFTFSNAWMHWVRQAPGKGLEWVAQIKDKSQNYATYYAESVKGRFTISRDDSKNSIYLQMNSLKTEDTAVYYCRYVHYSASYGVDYWGQGTTVTVSS VL: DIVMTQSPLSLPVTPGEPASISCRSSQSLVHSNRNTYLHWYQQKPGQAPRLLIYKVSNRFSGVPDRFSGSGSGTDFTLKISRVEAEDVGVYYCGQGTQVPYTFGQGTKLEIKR")
7.24

Please turn your attention to the following entry.
Task item: If you can, please state the reported pKd value of TR01H044-E22Hh/none-Hi-Kn010G3/L0000-k0 (antibody, V domains shown, one-arm) VH: QVQLVESGGGLVQPGRSLRLSCSASGFTFSNAWMHWVRQAPGKGLEWVAQIKDKSQNYATYYAESVKGRFTISRADSKNSIYLQMNSLKTEDTAVYYCRYVHYSASYGVDIWGQGTTVTVSS VL: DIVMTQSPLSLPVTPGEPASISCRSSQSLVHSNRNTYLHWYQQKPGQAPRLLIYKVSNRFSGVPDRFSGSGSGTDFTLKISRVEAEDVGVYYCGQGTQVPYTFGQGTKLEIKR .
Reply: 7.45
